- subject of test: Homeobox protein Hox-A13 (Mus musculus) (UniProt Q62424)
- Sequence (Q62424 whole entry, looked up): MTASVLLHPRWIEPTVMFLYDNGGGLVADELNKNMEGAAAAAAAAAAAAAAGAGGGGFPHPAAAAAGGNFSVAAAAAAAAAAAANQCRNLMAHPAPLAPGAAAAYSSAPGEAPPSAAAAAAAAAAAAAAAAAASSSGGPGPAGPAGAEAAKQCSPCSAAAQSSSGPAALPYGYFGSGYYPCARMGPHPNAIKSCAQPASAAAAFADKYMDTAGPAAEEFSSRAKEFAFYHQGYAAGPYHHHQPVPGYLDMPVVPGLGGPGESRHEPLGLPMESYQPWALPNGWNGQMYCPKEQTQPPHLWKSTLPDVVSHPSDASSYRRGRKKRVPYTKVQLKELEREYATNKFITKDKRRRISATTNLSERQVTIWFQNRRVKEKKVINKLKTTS
- test description: inhibitors of HoxA13-DNA binding, primary screen, biochemical, fluorescence polarization, labeled oligonucleotide (AID 1185)
- test settings: 15 min, higher = more signal, called active from +8 up or from −8 down
Recorded z-score, one value per entry.
// response body must contain only the number

Recorded z-score, per entry:
The recorded z-score for O=C1O[C@@H](c2ccccc2)[C@@H](c2ccccc2)N2[C@@H](c3ccccc3OCCO)[C@]3(C(=O)Nc4ccc(C#CCCO)cc43)[C@@H](C(=O)O)[C@H]12 is -5.33

The recorded z-score for CN1C(=O)C2C=CC(C(O)c3ccc(I)cc3)N(NC(=O)OC(C)(C)C)C2C1=O (stereo not drawn) is -2.75

The recorded z-score for C[C@@H]1C=CCC(=O)OC[C@H](C)C(=O)N2CCC[C@H]2C(=O)OC1 is -0.596

Now look at this entry.
The recorded z-score for O=C1CCCC2OC12C(O)CCc1ccccc1 (stereo not drawn) is -0.663
